Entries and their measured log10 EC50 follow.
- Tested on: CD69 in human whole blood
- assay protocol: Induction of CD69 in human whole blood (hWB)
- Type: cell-based
- assay setup: heparinized human whole blood, 17 h, CD69 surface staining; 100% set to 1 uM resiquimod; average where assay repeated
readout kind: log10 EC50 (log10 of the value in nM)

>>> assay_value("COc1cc(C(=O)N2CC3(CN(C)C3)C2)ccc1Cn1ncc2nc(N)nc(NCC3CC4(C3)CC(F)(F)C4)c21 [Compound 187]")
2.62
>>> assay_value("COc1cc(C(=O)NC2CCN(CCO)CC2)ccc1Cn1ncc2nc(N)nc(NCC3CC4(CC4)C3)c21 [Compound 225]")
2.34
>>> assay_value("CCCCNc1nc(N)nc2cnn(Cc3ccc(CN4CC5(CCNCC5)C4)cc3OC)c12 [Compound 256]")
1.03
>>> assay_value("COc1cc(C(=O)N2CCS(=O)(=O)CC2)ccc1Cn1ncc2nc(N)nc(NCC3CC4(CC4)C3)c21 [Compound 227]")
2.10
>>> assay_value("COc1cc(C(=O)N[C@@H]2CCN(C)C2)ccc1Cn1ncc2nc(N)nc(NCC3CC4(CC4)C3)c21 [Compound 193]")
1.18
>>> assay_value("CCC[C@@H](CCO)Nc1nc(N)nc2c(F)nn(Cc3ccc(CN4CC5(CNC5)C4)cc3OC)c12 [Compound 245]")
0.08
>>> assay_value("CN1C[C@@H]2CN(C(=O)c3ccc(Cn4ncc5nc(N)nc(NCC6CC7(CC7)C6)c54)c(OC(F)F)c3)C[C@@H]2C1 [Compound 218]")
1.54
>>> assay_value("CCC[C@@H](CCO)Nc1nc(N)nc2cnn(Cc3ccc(C(=O)N4CC5(C4)CN(C4CCOCC4)C5)cc3OC)c12 [Compound 229]")
1.58
>>> assay_value("COc1cc(CN2CC3(CN(C)C3)C2)ccc1Cn1ncc2nc(N)nc(NCC3CC4(CC4)C3)c21 [Compound 131]")
0.66
>>> assay_value("COc1cc(C(=O)N2C[C@@H]3C[C@H]2CN3)ccc1Cn1ncc2nc(N)nc(NCC3CC4(CC4)C3)c21 [Compound 178]")
2.19
>>> assay_value("CCC[C@@H](CCO)Nc1nc(N)nc2cnn(Cc3ccc(CN4CC5(CCO5)C4)cc3OC)c12 [Compound 112]")
2.52
>>> assay_value("COc1cc(C(=O)NC2CCN(C)CC2)ccc1Cn1ncc2nc(N)nc(NCC3CC4(CC4)C3)c21 [Compound 198]")
1.78
>>> assay_value("CCC[C@@H](CCO)Nc1nc(N)nc2c(C)nn(Cc3ccc(CN4CC5(CNC5)C4)cc3OC)c12 [Compound 246]")
1.05
>>> assay_value("COc1cc(CN2CCN(CCO)CC2)ccc1Cn1ncc2nc(N)nc(NCC3CC4(CC4)C3)c21 [Compound 183]")
1.69
>>> assay_value("COc1cc(C(=O)N2C[C@H]3CNC[C@H]3C2)ccc1Cn1ncc2nc(N)nc(NCC3CC4(CC4)C3)c21 [Compound 175]")
1.69
>>> assay_value("COc1cc(C(=O)N2C[C@H]3CN(C)C[C@H]3C2)ccc1Cn1nc(C)c2nc(N)nc(NCC3CC4(CC4)C3)c21 [Compound 217]")
1.03
>>> assay_value("COc1cc(C(=O)NCCN(C)C)ccc1Cn1ncc2nc(N)nc(NCC3CC4(CC4)C3)c21 [Compound 234]")
1.01
>>> assay_value("CCC[C@@H](CCO)Nc1nc(N)nc2cnn(Cc3ccc(CN4CC5(C4)CN(C(=O)C4(C)CC4)C5)cc3OC)c12 [Compound 107]")
1.00
>>> assay_value("COc1cc(C(=O)N2CC3(CN(C)C3)C2)ccc1Cn1ncc2nc(N)nc(NCc3noc(C)n3)c21 [Compound 247]")
1.57
>>> assay_value("COc1cc(C(=O)NC2CN(C)C2)ccc1Cn1ncc2nc(N)nc(NCC3CC4(CC4)C3)c21 [Compound 190]")
2.23
>>> assay_value("COc1cc(CN2C[C@H]3CNC[C@H]3C2)ccc1Cn1ncc2nc(N)nc(NCC3CC4(CC4)C3)c21 [Compound 169]")
0.65
>>> assay_value("CCCCNc1nc(N)nc2cnn(Cc3ccc(CN4CCC5(CCNC5)C4)cc3OC)c12 (centres unmarked) [Compound 265]")
1.52
>>> assay_value("CCCCNc1nc(N)nc2cnn(Cc3ccc(CN4CCC5(CC4)CN(CCO)C5)cc3OC)c12 [Compound 259]")
1.13
>>> assay_value("COc1cc(C(=O)N2CC3(C2)CN(C(C)C)C3)ccc1Cn1ncc2nc(N)nc(NCc3noc(C)n3)c21 [Compound 248]")
1.40
>>> assay_value("CCC[C@@H](CCO)Nc1nc(N)nc2cnn(Cc3ccc(CN4CC5(C4)CN(C(=O)C4CCC4)C5)cc3OC)c12 [Compound 106]")
1.40
>>> assay_value("CCC[C@@H](CCO)Nc1nc(N)nc2cnn(Cc3ncc(C4CC5(CCN(C6CCOCC6)CC5)C4)cc3OC)c12 [Compound 270]")
-0.70
>>> assay_value("CCC[C@@H](CCO)Nc1nc(N)nc2cnn(Cc3ncc(C4CCC5(CC4)CN(C(C)C)C5)cc3OC)c12 [Compound 277]")
-0.52
>>> assay_value("COc1cc(C(=O)N(CCO)CCO)ccc1Cn1ncc2nc(N)nc(NCC3CC4(CC4)C3)c21 [Compound 228]")
2.74
>>> assay_value("CCC[C@@H](CCO)Nc1nc(N)nc2cnn(Cc3ncc(C4=CC5(CCN(C(C)C)CC5)C4)cc3OC)c12 [Compound 274]")
0.04
